Would you mind telling me the reported Particle size of each entry?
- ASSAY NOTES: Particle size detection of LNP (Brookhaven NanoBrook Omni, DLS)
- Format: physicochemical
- CONDITION SET: LNPs after coating mRNA (luciferase)
One number for each entry, in nm·days.

CCCCCCCCCCCCCC(=O)N(CCCN(C)CCO)C(C(=O)NCCCCCCCCCCCC)C(C)(C)C (stereo not shown) | 188.99
CCCCC/C=C\C/C=C\CCCCCCCC(=O)N(CCCN(CC)CC)C(C(=O)NCCCCCCCCCCCCCC)C(C)(C)C (stereo not shown) | 201.12
CCCCCCCCC(CC)OC(=O)CCCCCCC(=O)N(CCCN(C)C)C(C(=O)NCCCCCCOC(=O)C(CCCCCC)CCCCCCCC)C(C)(C)C (stereo not shown) | 95.9

Switching to the query record.
*Q* Consider the molecule shown here: CCCCCCCCC(CC)OC(=O)CCCCCCC(=O)N(CCCN(C)C)C(C(=O)NCCCCCCCC(=O)OC(CCCCCCCC)CCCCCCCC)C(C)(C)C (stereo not shown) What is its recorded Particle size?
*A* 84.3
